Assign inhibition to each entry below.
# system_tested: Phospholipase A2 (Homo sapiens) (UniProt P04054)
# Sequence (P04054 whole entry, looked up): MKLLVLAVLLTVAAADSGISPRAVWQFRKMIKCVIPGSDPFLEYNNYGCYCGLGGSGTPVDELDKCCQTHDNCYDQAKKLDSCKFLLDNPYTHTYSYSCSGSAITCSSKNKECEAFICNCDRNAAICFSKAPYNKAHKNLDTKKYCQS
# procedure_text: human phospholipase A2 activity blockers – biochemical, single concentration, uHTS hits, counter-screen for ATG4B inhibitor project (AID 588402)
# conditions: purified PLA2, NBD-C6-HPC fluorescence, 45 min; at 8.33 µM; hits give high values
Hit rate of the full screen: of about 1,600 compounds, about 1,100 (69%) were called active. So high a share suggests a set chosen from earlier hits. These entries were drawn from the full list.
Field format: number, assumed %, no unit text.

Need inhibition, item `COc1ccc(C)cc1S(=O)(=O)N(CC(=O)Nc1cccc([N+](=O)[O-])c1)c1ccc(C)cc1`
86.6

Entry `COc1ccc(/C=C2/SC(=O)N(CCCCCC(=O)Nc3ccccc3C(=O)O)C2=S)cc1` : reported inhibition = ?
24.3

Reported inhibition for `O=c1c2sccc2nc(SCc2cc(=O)n3ccccc3n2)n1-c1ccc(Br)cc1` : what is it?
51.5

# inhibition lookup, item `c1ccc(C2=Nc3cccc4cccc(c34)N2)cc1`
58.5

Look up inhibition: `Cc1ccc(S(=O)(=O)N(CC(=O)Nc2cccc([N+](=O)[O-])c2)Cc2ccc(Cl)cc2)cc1`
80.7
